tested on: SK-MEL-2; assay: NCI tumour cell line growth inhibition, 48 h
Activity calls are given as the source filed them. No stated cut-off is given here; in the data, active = GI50 up to about 1.1 µM and inactive = higher.
ASSAY_METRIC: GI50

Below are 4 molecules. Give each one its GI50.
1. Clc1ccc(COC(Cn2ccnc2)c2ccc(Cl)cc2Cl)c(Cl)c1 (stereo not given)
2. Cc1ccc(CC2(OCCN(C)C)CCC(C(C)(C)C)CC2)cc1 (stereo not given)
3. CCOC(=O)CSC1NC(C(=O)OC)CC1OC (stereo not given)
4. C/C(=N/O)C1CC=C(S(=O)(=O)c2ccccc2)C1 (stereo not given)

["16.2 µM (inactive)", "1.97 µM (inactive)", "> 100 µM (inactive)", "> 100 µM (inactive)"]

Below are 6 molecules. Give each one its GI50.
1. O=c1ccn(Cc2ccccc2CCl)c(=O)[nH]1
2. CC1(C)O[C@@H]2[C@@H](COC(C)(C)O[C@H]2C2SCCCS2)O1
3. CC(/C=C/C=C/C=C/C=C/C=C/C(=O)C1=C(O)C(CCC(=O)O)N(C)C1=O)=C\C(C)C(OC1CC(O)C(O)C(C)O1)C(C)C (stereo not given)
4. Cc1cc(C)c2c(c1)C(=O)C1(C2)Cc2c(ccc(C)c2C)C1=O (stereo not given)
5. CCCCC(=O)Nc1ccc2cc(C(=O)OC)c(=O)[nH]c2n1
6. N#CC1(C#N)NC(c2ccccc2)C(C#N)(C#N)NC1c1ccccc1 (stereo not given)

32.7 µM (inactive)
> 100 µM (inactive)
1.78 µM (inactive)
> 100 µM (inactive)
> 100 µM (inactive)
> 100 µM (inactive)
